# test.context: rat, in vivo, iv, 120 min
Catalogue of molecules with associated % Injected Dose in Liver
Return type: number; implicit unit %.

// solved cases for % Injected Dose in Liver follow
[[record]]
molecule = "CC(=O)Nc1ccc(O)c(C(C(=O)O)N(CC#N)CCN(CC(=O)O)CC(=O)O)c1 (stereo not drawn) [Example 4]"
obs_value = 1.4

[[record]]
molecule = "Nc1ccc(O)c(C(C(=O)O)N(CCN(CC(=O)O)CC(=O)O)CC(=O)O)c1 (stereo not drawn) [Example 5]"
obs_value = 0.38


Output measured % Injected Dose in Liver for this item: Nc1ccc(O)c(C(NCCNC(C(=O)O)c2cc(N)ccc2O)C(=O)O)c1 (stereo not drawn) [Example X, reference compound]
24

====

Catalogue of molecules with associated % Complex (10:1), Y
# assay.overview: Percent complex determination, yttrium complexes (Sephadex C-25 cation exchange)
# Assay type: physicochemical
# test.context: ligand/metal 10:1, pH 7.4
Counter-ions that a name gives are not always drawn.

// solved cases for % Complex (10:1), Y follow
[[record]]
molecule = "Nc1ccc(OCC(=O)O)c(C(C(=O)O)N(CCN(CC(=O)O)CC(=O)O)CC(=O)O)c1 (stereo not drawn) [Example 3, SODIUM SALT]"
obs_value = "> 99%"

[[record]]
molecule = "CC(=O)Nc1ccc(OCC(=O)O)c(C(C(=O)O)N(CCN(CC(=O)O)CC(=O)O)CC(=O)O)c1 (stereo not drawn)"
obs_value = "> 99%"


Attention now shifts to the item below.
Output measured % Complex (10:1), Y for this item: CC(=O)Nc1ccc(O)c(C(C(=O)O)N(CC#N)CCN(CC(=O)O)CC(=O)O)c1 (stereo not drawn)
> 99%
